target: Androgen receptor (Homo sapiens, UniProt P10275); assay: SPA Binding Assay (IC50) and Coactivator Peptide Competitive FP Assay (IC50/EC50); details: pH 7.2; 23 °C
Sequence (P10275 whole entry): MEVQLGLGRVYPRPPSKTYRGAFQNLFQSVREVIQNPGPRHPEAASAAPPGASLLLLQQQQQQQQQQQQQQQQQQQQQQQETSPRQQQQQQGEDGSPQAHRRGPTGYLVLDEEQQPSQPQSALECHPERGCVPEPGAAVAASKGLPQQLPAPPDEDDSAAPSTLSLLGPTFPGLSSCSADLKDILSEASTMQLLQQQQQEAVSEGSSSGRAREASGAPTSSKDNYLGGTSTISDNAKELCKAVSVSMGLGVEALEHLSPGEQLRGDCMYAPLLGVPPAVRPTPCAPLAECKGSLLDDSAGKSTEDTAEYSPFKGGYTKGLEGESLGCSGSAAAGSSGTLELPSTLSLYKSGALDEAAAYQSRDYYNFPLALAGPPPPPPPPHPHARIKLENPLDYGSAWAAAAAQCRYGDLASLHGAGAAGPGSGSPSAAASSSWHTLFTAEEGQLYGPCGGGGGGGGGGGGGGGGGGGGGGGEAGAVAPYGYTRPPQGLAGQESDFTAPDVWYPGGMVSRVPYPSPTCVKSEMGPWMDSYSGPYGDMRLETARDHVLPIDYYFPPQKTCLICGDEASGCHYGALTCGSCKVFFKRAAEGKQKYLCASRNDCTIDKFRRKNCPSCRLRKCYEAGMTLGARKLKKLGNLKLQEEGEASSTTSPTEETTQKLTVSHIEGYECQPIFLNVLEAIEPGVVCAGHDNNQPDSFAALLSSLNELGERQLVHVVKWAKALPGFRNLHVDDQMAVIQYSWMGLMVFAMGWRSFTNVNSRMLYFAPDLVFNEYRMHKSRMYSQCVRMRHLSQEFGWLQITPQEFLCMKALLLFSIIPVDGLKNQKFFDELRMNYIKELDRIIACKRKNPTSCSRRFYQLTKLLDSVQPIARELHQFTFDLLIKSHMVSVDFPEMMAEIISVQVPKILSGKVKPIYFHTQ
experimental.endpoint: EC50 (µM)

Answered cases to consult:
mol: O=C(O)c1ccccc1Nc1ccc(Cc2ccccc2)cc1
assay.result: 55.5
--
mol: O=C(O)c1ccccc1Nc1ccc(Oc2ccccc2)c(C(F)(F)F)c1
assay.result: 54.5
--
mol: CCCCCCc1ccc(Nc2ccccc2C(=O)O)cc1
assay.result: 39
--
mol: Cc1ccc(Oc2ccc(Nc3ccccc3C(=O)O)cc2)cc1
assay.result: 28
--
mol: O=C(O)c1ccccc1Nc1ccccc1OCc1ccccc1
assay.result: 70.5

I: O=C(O)c1ccccc1Nc1ccc(Oc2ccc(C(F)(F)F)cc2)cc1
II: O=C(O)c1ccccc1Nc1cc(Oc2ccccc2)cc(Oc2ccccc2)c1
III: O=C(O)c1ccccc1Nc1cccc(-c2ccccc2)c1
IV: O=C(O)c1ccccc1Nc1ccc(Oc2ccc(F)cc2)cc1
Exercise: Ascending by EC50, please. Please, when replying, give the labels in the order that was requested.
Key: II, I, IV, III
